pIC50 values by entry
Tested on: L1210 cells
Assay: in vitro cytotoxicity, 3H-thymidine incorporation in L1210 cells
Type: cell-based
Settings: Mus musculus, 48 hours, 6 replicates
# reply with the number alone; pIC50 is -log10 of concentration in mol/L

Request: Hi! What's the reported pIC50 for Cn1c(-c2nc3cc(C4=NCCN4)ccc3[nH]2)ccc1-c1nc2cc(C3=NCCN3)ccc2[nH]1 on L1210 cells?
Response: 5.82

###

Tested on: C. neoformans
Assay: standard in vitro fungal cell growth inhibition assay (broth dilution, M27-P), minimum fungicidal concentration
Format: cell-based
Details: Cryptococcus neoformans, H99 clinical isolate, RPMI media, inoculum 10^4 cells, less than 0.01% survival of original inoculum
measuredQuantity: MFC (µM)
Write it as a number; the unit µM goes unstated.

c1cc(-c2nc3ccc(C4=NCCCN4)cc3[nH]2)nc(-c2nc3ccc(C4=NCCCN4)cc3[nH]2)c1 [Compound 8] : 19
Cn1c(-c2nc3ccc(C(=N)N)cc3[nH]2)ccc1-c1nc2ccc(C(=N)N)cc2[nH]1 [Compound 4] : 5.69
N=C(N)c1ccc2nc(-c3ccc(-c4nc5ccc(C(=N)N)cc5[nH]4)[nH]3)[nH]c2c1 [Compound 1] : 2.85
c1cc2[nH]c(-c3ccc(-c4nc5cc(C6=NCCN6)ccc5[nH]4)o3)nc2cc1C1=NCCN1 [Compound 10] : 2.6
c1cc(-c2nc3cc(C4=NCCN4)ccc3[nH]2)nc(-c2nc3cc(C4=NCCN4)ccc3[nH]2)c1 [Compound 3] : 5.2
Cn1c(-c2nc3cc(C4=NCCN4)ccc3[nH]2)ccc1-c1nc2cc(C3=NCCN3)ccc2[nH]1 [Compound 5] : 2.54
c1cc2[nH]c(-c3ccc(-c4nc5cc(C6=NCCN6)ccc5[nH]4)[nH]3)nc2cc1C1=NCCN1 [Compound 2] : 107

Below: the item to evaluate.
Request: What value of MFC has been reported for the following molecule? N=C(N)c1ccc2nc(-c3ccc(-c4nc5ccc(C(=N)N)cc5[nH]4)o3)[nH]c2c1 [Compound 9, 2,5-bis(5-amidino-2-benzimidazolyl)furan]
Response: 1.61

###

Tested on: L1210 cells
Experiment: in vitro cytotoxicity, 3H-thymidine incorporation in L1210 cells
Format: cell-based
Conditions: Mus musculus, 48 hours, 6 replicates
pIC50 values by entry
# reply with the number alone; pIC50 is -log10 of concentration in mol/L

Would you please look over these solved cases?
c1cc2[nH]c(-c3ccc(-c4nc5cc(C6=NCCN6)ccc5[nH]4)[nH]3)nc2cc1C1=NCCN1 : 5.97
N=C(N)c1ccc2nc(-c3ccc(-c4nc5ccc(C(=N)N)cc5[nH]4)[nH]3)[nH]c2c1 : 6.68
c1cc(-c2nc3ccc(C4=NCCCN4)cc3[nH]2)nc(-c2nc3ccc(C4=NCCCN4)cc3[nH]2)c1 : 5.52
c1cc(-c2nc3cc(C4=NCCN4)ccc3[nH]2)nc(-c2nc3cc(C4=NCCN4)ccc3[nH]2)c1 : 5.90

Below: the item to evaluate.
Request: Hi! What's the reported pIC50 for Cn1c(-c2nc3ccc(C(=N)N)cc3[nH]2)ccc1-c1nc2ccc(C(=N)N)cc2[nH]1 on L1210 cells?
Response: 6.09

Data origin: patent US6294565A
